Biological target: plasmin (Homo sapiens, UniProt P00747)
Construct: purchased Sankyo (Sankyo Color Test α2 -PI Assay Kit Standard)
Sequence (P00747 581-810 limits assumed, species assumed): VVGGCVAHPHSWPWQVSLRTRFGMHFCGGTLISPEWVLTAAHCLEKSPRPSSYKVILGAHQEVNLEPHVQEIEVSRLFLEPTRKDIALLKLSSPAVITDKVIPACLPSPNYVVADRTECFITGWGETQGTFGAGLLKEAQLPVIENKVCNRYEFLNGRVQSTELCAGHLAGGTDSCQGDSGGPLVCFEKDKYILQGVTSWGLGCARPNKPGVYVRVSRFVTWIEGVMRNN
Sequence (P00747 97-580 partner limits assumed, species assumed): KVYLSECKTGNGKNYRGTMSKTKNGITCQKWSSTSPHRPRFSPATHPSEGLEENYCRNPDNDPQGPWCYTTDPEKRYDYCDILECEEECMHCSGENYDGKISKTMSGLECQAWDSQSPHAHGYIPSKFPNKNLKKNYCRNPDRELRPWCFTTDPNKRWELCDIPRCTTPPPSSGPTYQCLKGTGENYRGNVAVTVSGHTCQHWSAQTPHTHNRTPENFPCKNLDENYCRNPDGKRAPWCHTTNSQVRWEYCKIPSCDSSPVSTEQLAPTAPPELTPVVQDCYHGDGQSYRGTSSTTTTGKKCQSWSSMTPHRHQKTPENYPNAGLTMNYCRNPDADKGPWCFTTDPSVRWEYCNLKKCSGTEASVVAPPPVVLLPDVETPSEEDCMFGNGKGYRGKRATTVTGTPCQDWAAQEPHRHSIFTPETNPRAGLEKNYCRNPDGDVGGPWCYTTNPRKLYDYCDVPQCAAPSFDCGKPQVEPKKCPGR
Assay: Assay for inhibitory activity against plasmin (synthetic substrate PS-994)
Assay type: biochemical
Conditions: Table 3, compounds of the invention; PS-994, pH 7.8, 37° C.; read-out: Plasmin
Where a SMILES comes first, the peptide text is derived from it. [ ]: non-standard residue; d: D form. The star is where a group is joined. Tos = Cc1ccc(S(=O)(=O)*)cc1; PhAc = O=C(Cc1ccccc1)*
test.readout: pIC50
Recall that pIC50 is obtained by taking minus log10 of the concentration measured in molar.

plasmin (Homo sapiens, UniProt P00747) data for N=C(N)NCCC[C@@H](C=O)NC(=O)[C@@H]1CCCN1C(=O)[C@H](N)CCCCNC(=O)Cc1ccccc1 [Example 9] (H-[dK](PhAc)-Pro-Arg-aldehyde) ; its pIC50: 5.59

plasmin (Homo sapiens, UniProt P00747) data for Cc1ccc(S(=O)(=O)NCCCC[C@@H](N)C(=O)N2CCC[C@H]2C(=O)N[C@H](C=O)CCCNC(=N)N)cc1 [Example 1] (H-[dK](Tos)-Pro-Arg-aldehyde) ; its pIC50: 5.82

* * *

Target: human plasma kallikrein (Homo sapiens, UniProt P03952)
Construct: purchased Kabi Co
Sequence (P03952 20-638): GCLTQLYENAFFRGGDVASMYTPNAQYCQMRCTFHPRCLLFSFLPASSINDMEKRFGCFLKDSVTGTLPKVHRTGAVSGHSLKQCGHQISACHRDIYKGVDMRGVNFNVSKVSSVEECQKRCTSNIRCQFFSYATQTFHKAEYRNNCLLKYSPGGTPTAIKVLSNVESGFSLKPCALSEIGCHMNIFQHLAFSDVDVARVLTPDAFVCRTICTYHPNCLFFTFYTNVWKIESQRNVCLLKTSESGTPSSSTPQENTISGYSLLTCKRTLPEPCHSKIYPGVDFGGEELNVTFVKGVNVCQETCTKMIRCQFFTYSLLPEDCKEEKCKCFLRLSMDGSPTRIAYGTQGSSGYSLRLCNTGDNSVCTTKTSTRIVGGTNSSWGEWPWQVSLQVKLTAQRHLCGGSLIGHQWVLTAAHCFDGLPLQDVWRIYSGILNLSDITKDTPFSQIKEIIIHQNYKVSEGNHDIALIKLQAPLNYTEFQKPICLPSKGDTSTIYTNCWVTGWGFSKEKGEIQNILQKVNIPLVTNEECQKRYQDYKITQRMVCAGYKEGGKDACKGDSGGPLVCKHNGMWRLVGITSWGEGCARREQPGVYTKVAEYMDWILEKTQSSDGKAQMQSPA
Assay: Assay for inhibitory activity against kallikrein (synthetic substrate S-2302)
Format: biochemical
Settings: Table 2, known compounds; S-2302, pH 8.0, 37° C.; read-out: IC50 Kallikrein
Field: pIC50. Provide a value for each of the compounds that follow.
Recall that pIC50 is obtained by taking minus log10 of the concentration measured in molar.

According to the records, this compound CCOC(=O)c1ccc(OC(=O)CCCCCN=C(N)N)cc1 [Example A3, reference compound] displays pIC50 of 5.35

According to the records, this compound N=C(N)NCCC[C@@H](C=O)NC(=O)[C@@H]1CCCN1C(=O)[C@H](N)Cc1ccccc1 [Example A2, D-phenylalanyl-L-prolyl-L-argininal, reference compound] displays pIC50 of 4.51

* * *

Field: IC50. Provide a value for each of the compounds that follow.
Target: trypsin (Bos taurus)
Construct: purchased Worsingstone Co. (so in the source)
Sequence (P00760 24-246): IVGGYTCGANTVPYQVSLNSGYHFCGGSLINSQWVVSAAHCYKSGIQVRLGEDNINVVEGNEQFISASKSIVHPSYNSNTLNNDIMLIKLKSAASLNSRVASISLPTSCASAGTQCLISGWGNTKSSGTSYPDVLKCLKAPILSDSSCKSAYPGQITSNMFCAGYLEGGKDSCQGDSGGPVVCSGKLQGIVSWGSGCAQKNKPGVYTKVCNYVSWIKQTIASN
Experiment: Assay for inhibitory activity against trypsin (synthetic substrate PS-915)
Assay type: biochemical
Settings: Table 2, known compounds; PS-915, pH 8.0, 37° C.; read-out: IC50 Trypsin
# value in nM; strip the unit string

trypsin (Bos taurus) data for N=C(N)NCCC[C@@H](C=O)NC(=O)[C@@H]1CCCN1C(=O)[C@H](N)Cc1ccccc1 [Example A2, D-phenylalanyl-L-prolyl-L-argininal, reference compound] ; its IC50: 69

trypsin (Bos taurus) data for CCOC(=O)c1ccc(OC(=O)CCCCCN=C(N)N)cc1 [Example A3, reference compound] ; its IC50: 1900

* * *

Target: trypsin (Bos taurus)
Construct: purchased Worsingstone Co. (so in the source)
Test: Assay for inhibitory activity against trypsin (synthetic substrate PS-915)
Assay type: biochemical
Details: Table 3, compounds of the invention; PS-915, pH 8.0, 37° C.; read-out: Trypsin
Where a SMILES comes first, the peptide text is derived from it. [ ]: non-standard residue; d: D form. The star is where a group is joined. Tos = Cc1ccc(S(=O)(=O)*)cc1; PhAc = O=C(Cc1ccccc1)*
Field: IC50. Provide a value for each of the molecules that follow.
# value in nM; strip the unit string

trypsin (Bos taurus) data for N=C(N)NCCC[C@@H](C=O)NC(=O)[C@@H]1CCCN1C(=O)[C@H](N)CCCCNC(=O)Cc1ccccc1 [Example 9] (H-[dK](PhAc)-Pro-Arg-aldehyde) ; its IC50: 68

trypsin (Bos taurus) data for Cc1ccc(S(=O)(=O)NCCCC[C@@H](N)C(=O)N2CCC[C@H]2C(=O)N[C@H](C=O)CCCNC(=N)N)cc1 [Example 1] (H-[dK](Tos)-Pro-Arg-aldehyde) ; its IC50: 48

* * *

Field: pIC50. Provide a value for each of the molecules that follow.
Target: human factor Xa (Homo sapiens, UniProt P00742)
Construct: purchased Boehringer Mannheim
Sequence (P00742 235-488 limits assumed): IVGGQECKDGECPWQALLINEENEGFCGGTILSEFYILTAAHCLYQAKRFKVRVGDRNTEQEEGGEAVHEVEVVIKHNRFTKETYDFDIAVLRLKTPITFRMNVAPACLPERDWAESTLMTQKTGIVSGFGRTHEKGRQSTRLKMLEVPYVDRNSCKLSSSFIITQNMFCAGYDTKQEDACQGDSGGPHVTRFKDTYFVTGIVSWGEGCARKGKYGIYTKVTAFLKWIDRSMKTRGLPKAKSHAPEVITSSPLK
Sequence (P00742 41-179 partner limits assumed): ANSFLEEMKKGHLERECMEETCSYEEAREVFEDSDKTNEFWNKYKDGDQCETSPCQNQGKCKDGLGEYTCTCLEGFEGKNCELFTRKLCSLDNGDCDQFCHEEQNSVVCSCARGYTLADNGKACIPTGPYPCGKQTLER
Assay: Assay for inhibitory activity against factor Xa (synthetic substrate PS-2000)
Type: biochemical
Settings: Table 2, known compounds; PS-2000, pH 8.5, 37° C.; read-out: IC50 Factor Xa
Recall that pIC50 is obtained by taking minus log10 of the concentration measured in molar.

According to the records, this molecule CCOC(=O)c1ccc(OC(=O)CCCCCN=C(N)N)cc1 [Example A3, reference compound] displays pIC50 of 4.89

According to the records, this molecule N=C(N)NCCC[C@@H](C=O)NC(=O)[C@@H]1CCCN1C(=O)[C@H](N)Cc1ccccc1 [Example A2, D-phenylalanyl-L-prolyl-L-argininal, reference compound] displays pIC50 of 4.60

* * *

Biological target: thrombin (Homo sapiens, UniProt P00734)
Construct: purchased Sankyo (Sankyo Color Test ATIII Assay Kit)
Experiment: Assay for inhibitory activity against thrombin (synthetic substrate PS-915)
Format: biochemical
Settings: Table 2, known compounds; PS-915, pH 8.5, 37° C.; read-out: IC50 Thrombin
test.readout: pIC50
Recall that pIC50 is obtained by taking minus log10 of the concentration measured in molar.

thrombin (Homo sapiens, UniProt P00734) data for N=C(N)NCCC[C@@H](C=O)NC(=O)[C@@H]1CCCN1C(=O)[C@H](N)Cc1ccccc1 [Example A2, D-phenylalanyl-L-prolyl-L-argininal, reference compound] ; its pIC50: 7.60

thrombin (Homo sapiens, UniProt P00734) data for CCOC(=O)c1ccc(OC(=O)CCCCCN=C(N)N)cc1 [Example A3, reference compound] ; its pIC50: 4.49

* * *

Target: plasmin (Homo sapiens)
Construct: purchased Sankyo (Sankyo Color Test α2 -PI Assay Kit Standard)
Assay: Assay for inhibitory activity against plasmin (synthetic substrate PS-994)
Assay type: biochemical
Settings: Table 2, known compounds; PS-994, pH 7.8, 37° C.; read-out: IC50 Plasmin
Field: pIC50. Provide a value for each of the molecules that follow.
Recall that pIC50 is obtained by taking minus log10 of the concentration measured in molar.

According to the records, this molecule CCOC(=O)c1ccc(OC(=O)CCCCCN=C(N)N)cc1 [Example A3, reference compound] displays pIC50 of 4.40

According to the records, this molecule N=C(N)NCCC[C@@H](C=O)NC(=O)[C@@H]1CCCN1C(=O)[C@H](N)Cc1ccccc1 [Example A2, D-phenylalanyl-L-prolyl-L-argininal, reference compound] displays pIC50 of 4.72

* * *

Field: IC50. Provide a value for each of the molecules that follow.
Target: urokinase (Homo sapiens, UniProt P00749)
Construct: purchased Mochida Pharmaceutical Urokinase 60,000 (60,000 U/vial)
Assay: Assay for inhibitory activity against urokinase (synthetic substrate MUK-34)
Type: biochemical
Details: Table 3, compounds of the invention; MUK-34, pH 8.20, 37° C.; read-out: Urokinase
Where a SMILES comes first, the peptide text is derived from it. [ ]: non-standard residue; d: D form. The star is where a group is joined. Tos = Cc1ccc(S(=O)(=O)*)cc1; PhAc = O=C(Cc1ccccc1)*
# value in µM; strip the unit string

According to the records, this molecule N=C(N)NCCC[C@@H](C=O)NC(=O)[C@@H]1CCCN1C(=O)[C@H](N)CCCCNC(=O)Cc1ccccc1 [Example 9] (H-[dK](PhAc)-Pro-Arg-aldehyde) displays IC50 of 83

According to the records, this molecule Cc1ccc(S(=O)(=O)NCCCC[C@@H](N)C(=O)N2CCC[C@H]2C(=O)N[C@H](C=O)CCCNC(=N)N)cc1 [Example 1] (H-[dK](Tos)-Pro-Arg-aldehyde) displays IC50 of 35

* * *

Target: thrombin (Homo sapiens, UniProt P00734)
Construct: purchased Sankyo (Sankyo Color Test ATIII Assay Kit)
Experiment: Assay for inhibitory activity against thrombin (synthetic substrate PS-915)
Format: biochemical
Conditions: Table 3, compounds of the invention; PS-915, pH 8.5, 37° C.; read-out: Thrombin
Where a SMILES comes first, the peptide text is derived from it. [ ]: non-standard residue; d: D form. The star is where a group is joined. Tos = Cc1ccc(S(=O)(=O)*)cc1; PhAc = O=C(Cc1ccccc1)*
test.readout: IC50

According to the records, this molecule Cc1ccc(S(=O)(=O)NCCCC[C@@H](N)C(=O)N2CCC[C@H]2C(=O)N[C@H](C=O)CCCNC(=N)N)cc1 [Example 1] (H-[dK](Tos)-Pro-Arg-aldehyde) displays IC50 of 300 nM

According to the records, this molecule N=C(N)NCCC[C@@H](C=O)NC(=O)[C@@H]1CCCN1C(=O)[C@H](N)CCCCNC(=O)Cc1ccccc1 [Example 9] (H-[dK](PhAc)-Pro-Arg-aldehyde) displays IC50 of 930 nM
